The values you see were collected from PubChem BioAssay AID2060504.

Test system: 636577-100-R-J1-PDC complex spheroid viability;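 further: luminescence signal used as a proxy for viable cells; viability read after seven days of drug exposure; 100% = DMSO vehicle control wells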
Assay Name: Anticancer human tumor 636577-100-R-J1-PDC patient-derived endometrial adenocarcinoma cell line growth inhibition [GQUAD]
Condition Context: second compound 0.0316 µM; first compound 0.000999 µM; hits give low values
Source text: DNA G-quadruplex Stabilizer Agents in Combinations in Complex Spheroids A high-throughput screen of multi-cell type tumor spheroids was designed to identify active combinations of DNA G-quadruplex stabilizer agents and targeted small molecules. […] Compounds. […] If the clinical Cmax for an agent had not been determined, the highest concentration tested was 10 microM. […]
Please go through the items and note down their viability, T/C.
A number alone suffices; assume %.

For Cn1ncnc1[C@H]1c2n[nH]c(=O)c3cc(F)cc(c23)N[C@@H]1c1ccc(F)cc1 + CN(C)c1ccc(Nc2c3ccc(NC(=O)CCN4CCCC4)cc3nc3cc(NC(=O)CCN4CCCC4)ccc23)cc1 , what is its reported viability, T/C?
95.1

Please answer likewise for Cn1ncnc1[C@H]1c2n[nH]c(=O)c3cc(F)cc(c23)N[C@@H]1c1ccc(F)cc1 + Cc1cnc(CNC(=O)c2c(=O)c3ccc(N4CCCN(C)CC4)nc3n3c2sc2ccccc23)cn1
47.9

Please answer likewise for Cc1[nH]c2ccccc2c1CCNCc1ccc(/C=C/C(=O)NO)cc1 + Cc1cnc(CNC(=O)c2c(=O)c3ccc(N4CCCN(C)CC4)nc3n3c2sc2ccccc23)cn1
49.7

Please answer likewise for CCc1c2c(nc3ccc(O)cc13)-c1cc3c(c(=O)n1C2)COC(=O)[C@]3(O)CC + CN(C)c1ccc(Nc2c3ccc(NC(=O)CCN4CCCC4)cc3nc3cc(NC(=O)CCN4CCCC4)ccc23)cc1
46.8

Please answer likewise for Cn1ncnc1[C@H]1c2n[nH]c(=O)c3cc(F)cc(c23)N[C@@H]1c1ccc(F)cc1 + Cc1[nH]c2ccc(F)cc2c1-c1nc2c3cccnc3c3ncccc3c2[nH]1
49.4

Please answer likewise for Cc1[nH]c2ccccc2c1CCNCc1ccc(/C=C/C(=O)NO)cc1 + CN(C)c1ccc(Nc2c3ccc(NC(=O)CCN4CCCC4)cc3nc3cc(NC(=O)CCN4CCCC4)ccc23)cc1
84

Please answer likewise for Cc1[nH]c2ccccc2c1CCNCc1ccc(/C=C/C(=O)NO)cc1 + Cc1[nH]c2ccc(F)cc2c1-c1nc2c3cccnc3c3ncccc3c2[nH]1
85.4

Please answer likewise for CC[C@@]1(O)C(=O)OCc2c1cc1n(c2=O)Cc2cc3c(CN(C)C)c(O)ccc3nc2-1 + CN(C)c1ccc(Nc2c3ccc(NC(=O)CCN4CCCC4)cc3nc3cc(NC(=O)CCN4CCCC4)ccc23)cc1
108
